Target: SHP2-C SH2;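 note: peptide library displayed on the E. coli surface as eCPX fusions, selected cells deep-sequenced, score is each peptide's frequency after selection divided by its frequency in the input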
Assay: SH2 binding enrichment of the phosphorylated peptide, bacterial display (enrichment ratio); higher = better substrate or ligand; peptides without Tyr show the background
Measure: SH2 binding enrichment

Previously resolved entries follow.
{"columns": ["Sequence Input", "SH2 binding enrichment"],
 "data": [
  ["GLSAPYVKIHL [SYT2_Y309_D307A]", 3.06],
  ["SFSGEYGSGGG [ZG16_Y30_G32S_YF]", 0.728]
]}

a: RALLNYIASKF [GSTA3_Y74_I71L_YF]
b: DDHFTYSRYPW [LY75_Y888]
## Task Which has the smaller recorded SH2 binding enrichment, a or b ? Respond using the label that marks the chosen record.
## Result a
(a: 0.579, b: 0.942)

a: KTNVSYFGALD [CACNB4_Y103_C104F]
b: SFPSYYTSHVQ [NEFL_Y443]
## Task Which has the smaller recorded SH2 binding enrichment, a or b ? Respond using the label that marks the chosen record.
## Result a
(a: 0.63, b: 1.2)

I: KVGRVYLFLQP [ITGA2B_Y360_E355K]
II: TSIGNYYKPWF [DHCR24_Y299_N294T]
## Task Which has the smaller recorded SH2 binding enrichment, I or II ? Respond using the label that marks the chosen record.
## Result I
(I: 0.724, II: 2.71)

A: ALECLYHREKR [TEKT5_Y195]
B: NKYVAYIESQG [KDM4B_Y34]
C: SHTPSYCDEWL [RITA1_Y109_S113W]
## Task Endpoint returns the given sequences ordered by ascending SH2 binding enrichment. Respond with the label ranking, as requested.
## Result A, C, B

I: KGIQLYDTPYE [SHB_Y297]
II: LNARHYGGLTG [PGAM2_Y92_E89A]
## Task Which has the smaller recorded SH2 binding enrichment, I or II ? Respond using the label that marks the chosen record.
## Result II
(II: 0.656, I: 1.1)

1: KGELRYMHSPV [ABCD1_Y281_R285P]
2: QGIFGYHHFMQ [UFSP2_Y287_YF]
3: KPGVNYYFQVS
## Task Endpoint returns the given sequences ordered by ascending SH2 binding enrichment. Respond with the label ranking, as requested.
## Result 1, 2, 3

I: TEVIWYKGDEE
II: QKMADYSNKLH [PDPR_Y104_Y109H]
## Task Between I and II , whose recorded SH2 binding enrichment is greater? Respond using the label that marks the chosen record.
## Result II
(II: 1.13, I: 0.624)

1: VSAPEYGPKLK [TBC1D14_Y46_L41V]
2: AKIDGYIISYR
## Task Between 1 and 2 , whose recorded SH2 binding enrichment is greater? Respond using the label that marks the chosen record.
## Result 2

====

// reported phosphorylation enrichment per item
Target: Fyn (UniProt P06241)
Sequence (P06241 whole entry, looked up): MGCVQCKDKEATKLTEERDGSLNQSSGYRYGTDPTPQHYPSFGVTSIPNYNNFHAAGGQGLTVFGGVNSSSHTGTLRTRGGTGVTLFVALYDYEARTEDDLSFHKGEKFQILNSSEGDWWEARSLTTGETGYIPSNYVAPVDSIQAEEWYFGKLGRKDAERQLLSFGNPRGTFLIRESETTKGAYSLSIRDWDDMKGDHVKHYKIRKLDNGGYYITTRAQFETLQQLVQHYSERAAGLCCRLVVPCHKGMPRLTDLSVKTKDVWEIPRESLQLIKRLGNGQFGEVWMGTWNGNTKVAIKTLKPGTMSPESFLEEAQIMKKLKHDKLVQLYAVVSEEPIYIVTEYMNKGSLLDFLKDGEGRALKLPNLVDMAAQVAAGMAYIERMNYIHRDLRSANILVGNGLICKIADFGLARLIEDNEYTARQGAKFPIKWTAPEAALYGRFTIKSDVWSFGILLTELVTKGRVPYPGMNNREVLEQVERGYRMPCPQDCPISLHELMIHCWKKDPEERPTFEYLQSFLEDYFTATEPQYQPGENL
Assay: phosphorylation enrichment, bacterial display (enrichment ratio); higher = better substrate or ligand; peptides without Tyr show the background
Please state the value as a number alone, without comment.

{"columns": ["Sequence Input", "phosphorylation enrichment"],
 "data": [
  ["EYGRRYGFSCQ [CCDC93_Y209_R213C]", 0.53],
  ["LAIELYVVVCK [RHO_Y136_R135L]", 1.14],
  ["SQQTFYPVSNM [ABCD1_Y181_R182P_YF]", 0.419],
  ["GSRGKYFSGFR [ATM_Y332_S333F]", 0.386],
  ["VDLIVYLWTNP [TK2_Y181_R183W]", 0.421]
]}

## Task Need phosphorylation enrichment of DPHECYAKVFN [ALB_Y394_D399N] , thanks.
## Result 0.552

## Task Need phosphorylation enrichment of VRFMAYTDETC [F8_Y450_F455C] , thanks.
## Result 0.403

## Task Need phosphorylation enrichment of AYRHGYFDEEM [PLEC_Y2971_R2969H] , thanks.
## Result 0.593

## Task Need phosphorylation enrichment of PGIRMYRVQYN [LRFN1_Y454_Q455R] , thanks.
## Result 0.486

## Task Need phosphorylation enrichment of ISSLPYMKMIF [SLC4A11_Y853_M848I] , thanks.
## Result 0.457

## Task Need phosphorylation enrichment of PSARTYCFKQE [KLHDC9_Y175_YF] , thanks.
## Result 0.622

## Task Need phosphorylation enrichment of DIDKIYIRTGI [PIK3CA_Y355_V356I] , thanks.
## Result 0.479

## Task Need phosphorylation enrichment of CTTIHYNFVCN [TP53_Y234_M237V_YF] , thanks.
## Result 0.539
